Recorded % inhibition for the following molecules
Tested on: purified SDS-resistant proteolytic enzyme preparation
METHOD: Inhibitor studies on purified SDS-resistant proteolytic enzyme preparation
Assay type: biochemical, Pyrococcus furiosus
CONDITION DETAILS: 10 mM inhibitor
Please answer using the number first and the unit second.

Please review the entries below; each comes with its answer.
O=C(O)CN(CCOCCOCCN(CC(=O)O)CC(=O)O)CC(=O)O    49%
O=S(=O)(F)Cc1ccccc1 [phenyl methylsulfonyl fluoride]    0%

Record request: % inhibition value, item O=C(O)CN(CCN(CC(=O)O)CC(=O)O)CC(=O)O
49%

Record request: % inhibition value, item O=C(O)c1cc[c]([Hg][Cl])cc1 [p-chloromercuribenzoate]
40%
